The reported measurements were obtained from PubChem BioAssay (NCATS).

test system: PA-1; assay: Primary qHTS to identify gynecologic anti-cancer compounds using libraries of approved drugs and bioactive compounds (AID 1345084); details: Gynecologic cancer cell panel viability, ATPlite luminescence, 48 h; series mostly up to 57.5 µM; note: nearly all actives have a fitted effect of over 55% in size
Inconclusive results are not listed. Activity calls are given as the source filed them. Calls come from the whole dose curve; as a rule, active = well fitted cell-killing curve with a large enough effect; inconclusive = small, poorly fitted or top-dose-only effect, or effect the other way; inactive = flat fitted curve, though single readings scatter.
Possible outcomes: yes (1) (active), no (0) (inactive)

compound	class assignment
C/C=C(/C)C(=O)OC1C=C2C3C(C)C(C)C(OC(=O)C(C)C(C)O)CC3(C)CCC2(C)C2(C)CC(OC(C)=O)C3C(C)(C)C(O)C(=O)CC3(C)C12 (stereo not drawn)	no (0)
O=C(Nc1ccccc1Cl)c1cnc2ccc(C3CCNCC3)cn12	yes (1)
Cn1cc(-c2ccc(F)c(C(F)(F)F)c2)nc1C1CCN(c2ncnc3[nH]ncc23)CC1	no (0)
CC1CCCC(O)CCC/C=C/c2cc(OS(=O)(=O)O)cc(O)c2C(=O)O1 (stereo not drawn)	no (0)
CC1(C)OC[C@H](NC(=O)Nc2ccc(Br)cc2Br)[C@H](c2ccccc2)O1	no (0)
Cn1nc(-c2ccc(C(F)(F)F)cc2)nc2c(=O)n(C)c(=O)nc1-2	yes (1)
CC(=O)[C@H]1CC[C@H]2[C@@H]3CC=C4C[C@@H](OS(=O)(=O)O)CC[C@]4(C)[C@H]3CC[C@]12C	no (0)
COc1ccc2cc(-c3cc(-c4cc(Cl)cc(Cl)c4)nn3C(C)c3ccc(C(=O)NCCC(=O)O)cc3)ccc2c1 (stereo not drawn)	no (0)

====

test system: Es-2; test: Primary qHTS to identify gynecologic anti-cancer compounds using libraries of approved drugs and bioactive compounds (AID 1345084); settings: Gynecologic cancer cell panel viability, ATPlite luminescence, 48 h; series mostly up to 57.5 µM; note: nearly all actives have a fitted effect of over 55% in size
Records with an inconclusive call do not appear. The source made the active and inactive calls. Calls follow the shape of the dose curve; as a rule, active = well fitted cell-killing curve with a large enough effect; inconclusive = small, poorly fitted or top-dose-only effect, or effect the other way; inactive = flat fitted curve, though single readings scatter.
Possible outcomes: active, inactive

compound	class assignment
O=C(Nc1ccc(CN2CCOCC2)cc1)c1ccc(-c2cccc(Cl)c2)o1	inactive
CO[C@H]1C[C@@H]2CC[C@@H](C)[C@@](O)(O2)C(=O)C(=O)N2CCCC[C@H]2C(=O)O[C@H]([C@@H](C)C[C@@H]2CC[C@@H](O)[C@H](OC)C2)CC(=O)[C@H](C)/C=C(\C)[C@@H](O)[C@@H](OC)C(=O)[C@H](C)C[C@H](C)/C=C/C=C/C=C/1C	inactive
Cn1nc(-c2ccc(C(F)(F)F)cc2)nc2c(=O)n(C)c(=O)nc1-2	active
Cc1ccc(CNc2ncnc3ccc(-c4ccc(CO)o4)cc23)o1	inactive
CCN(CC)CCCS(=O)(=O)N[C@H](CCc1ccccc1)c1nc(Cc2ccc(Br)cc2)no1	inactive
COC(=O)c1ccc(N2CCN(C)CC2)c(NC(=O)c2cccc(OC)c2)c1	inactive
CCOc1ccc(CCNC(=O)c2cc3sc(Cl)cc3n2C)cc1OCC	inactive
COc1ccccc1N1CCN(CC[C@@](C)(C(=O)C2CCCCC2)c2ccccc2)CC1	inactive
C[C@@H]1CC[C@@]23CC[C@]4(C)[C@@](C=CC5[C@@]6(C)CC[C@H](O)C(C)(C)C6CC[C@]54C)(OC2=O)C3[C@H]1C (some centres undefined)	inactive
O=C(NCCCNc1nc(Nc2cccc(CN3CCOCC3)c2)ncc1C1CC1)C1CCC1	inactive
CC(C)CCNc1ncccc1C(=O)N1CCN(Cc2ccccc2)CC1	inactive
Nc1c(S(=O)(=O)c2ccccc2)c2nc3ccccc3nc2n1-c1ccc(F)cc1	inactive
CS/C=C/C(=O)O[C@@H]1CCC2=CC(=O)C(=C(C)C)C[C@]2(C)[C@H]1C	inactive
S=C(c1ccc(-c2ccc(Cl)c(Cl)c2)o1)N1CCCCC1	inactive
COc1ccc(Sc2ccc(NC(=O)c3ccccc3Cl)cc2C#N)cc1	inactive
COc1cc(/C=N\NC(=O)c2ccc3c(c2)OCO3)ccc1OCc1ccccc1	inactive
C[C@@H]1CCCN1CCc1cc2cc(-c3ccc(C#N)cc3)ccc2o1	inactive
Cc1cc(Nc2nc(-c3ccccc3)nc3ccccc23)n[nH]1	inactive
Cc1cc(C)nc(SCC(=O)Nc2ncc(Cc3cccc4ccccc34)s2)n1	inactive
